Biological target: rat FAAH (Rattus norvegicus, UniProt P97612)
Construct: expressed in transfected cells
Sequence (P97612 whole entry): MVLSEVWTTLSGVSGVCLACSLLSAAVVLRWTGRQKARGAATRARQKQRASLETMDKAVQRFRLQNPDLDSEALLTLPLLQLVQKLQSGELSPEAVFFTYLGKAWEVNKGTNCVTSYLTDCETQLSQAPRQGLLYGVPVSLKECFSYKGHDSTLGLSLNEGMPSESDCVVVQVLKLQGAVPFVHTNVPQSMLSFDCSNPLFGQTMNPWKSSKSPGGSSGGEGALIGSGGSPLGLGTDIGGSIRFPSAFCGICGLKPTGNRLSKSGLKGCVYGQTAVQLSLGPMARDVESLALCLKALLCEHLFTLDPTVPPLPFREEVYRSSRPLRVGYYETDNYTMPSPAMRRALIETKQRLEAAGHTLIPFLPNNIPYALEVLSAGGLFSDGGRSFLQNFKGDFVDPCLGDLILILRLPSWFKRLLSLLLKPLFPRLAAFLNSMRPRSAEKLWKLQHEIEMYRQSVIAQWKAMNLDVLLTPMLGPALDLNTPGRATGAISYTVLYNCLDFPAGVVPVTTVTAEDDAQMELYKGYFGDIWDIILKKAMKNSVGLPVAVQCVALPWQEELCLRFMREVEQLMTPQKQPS
Assay: Assay Method 2: FAAH assay, hydrolysis of 3H-anandamide by homogenate of SK-N-MC cells transfected with rat FAAH
Assay type: biochemical
Conditions: T84 or transfected SK-N-MC cell homogenate, 3H-AEA tracer 80 nM, rt 1 h, pH 9
Experimental: A. Transfection of Cells with Rat FAAH A 10-cm tissue culture dish with a confluent monolayer of SK-N-MC cells was split 2 days (d) prior to transfection. Using sterile technique, the media was removed and the cells were detached from the dish by the addition of trypsin. One fifth of the cells were then placed onto a new 10-cm dish. […] After 10 d, dishes were analyzed for surviving colonies of cells. […]
pIC50: −log10 of the molar value. Structures can show the parent of a compound that is named as a salt.
MEASUREMENT KIND: pIC50

# example entries with known answers
| MOLECULE | pIC50 |
| --- | --- |
| O=C(CCCC1CCN(Cc2ccc(-n3ccnc3)cc2)CC1)c1ncco1 | 5.82 |
| O=C(CCCC1CCN(Cc2ccc(Br)cc2)CC1)c1ncco1 | 6.57 |
| Cc1ccccc1CCC(=O)N1CCC(CCCC(=O)c2ncco2)CC1 | 6.89 |
| CC(C)c1ccc(CN2CCC(CCCC(=O)c3ncco3)CC2)cn1 | 6.02 |
| Cc1cccc(CC(=O)N2CCC(CCCC(=O)c3ncco3)CC2)c1 | 6.33 |
| CC(c1ccccc1)N1CCC(CCCC(=O)c2ncco2)CC1 (stereo not drawn) | 5.52 |

P: O=C(CCCC1CCN(C(=O)CCc2cccnc2)CC1)c1ncco1
Q: O=C(CCCC1CCN(Cc2cccc(OC3CCCCC3)c2)CC1)c1ncco1
query: Which record would sort first by descending pIC50, P or Q ? Answer by quoting the chosen item's label.
result: Q
(Q: 8.70, P: 6.15)

a: O=C(CCCC1CCN(Cc2cc(F)cc(F)c2F)CC1)c1ncco1
b: CC(C)c1ccc(CN2CCC(CCCC(=O)c3ncc(-c4cccc(C(=O)O)n4)o3)CC2)cc1 [Example 148, trifluoroacetic acid salt]
query: Lab note: check whether a or b shows the higher recorded pIC50. State your choice using its label.
result: b
(b: 7.25, a: 6.35)

A: O=C(CCCC1CCN(C(=O)CCc2ccc(Cl)cc2)CC1)c1ncco1
B: O=C(CCCC1CCN(Cc2cc3ccccc3nc2Cl)CC1)c1ncco1
query: Endpoint returns the identifier whose pIC50 is numerically larger, either A or B . Give the label of your selection.
result: A

a: CC(C)c1ccc(CN2CCC(CCCC(=O)c3ncc(C(=O)O)o3)CC2)cc1 [Example 144, trifluoroacetic acid salt]
b: O=C(CCCC1CCN(Cc2cncc(Br)c2)CC1)c1ncco1
c: O=C(O)c1cnc(C(=O)CCCC2CCN(Cc3cccc(Oc4ccccc4)c3)CC2)o1 [Example 145, trifluoroacetic acid salt]
query: Place the items in sequence of falling pIC50. Hello, could you send the labels back in the order asked? Thank you.
result: c, a, b

A: O=C(CCCC1CCN(Cc2ccncc2)CC1)c1ncco1
B: CCCCCCCCCN1CCC(CCCC(=O)c2ncco2)CC1
query: Compare A and B by numeric pIC50 and name the larger one. Output the label that corresponds to your choice.
result: B
(B: 7.24, A: 6.26)

P: O=C(CCCC1CCN(Cc2ccc(F)c(Cl)c2)CC1)c1ncco1
Q: O=C(CCCC1CCN(Cc2ccc(C3CCCCC3)cc2)CC1)c1ncco1
R: O=C(CCCC1CCN(Cc2cccc(F)c2)CC1)c1ncco1
S: O=C(CCCC1CCN(C(=O)COc2ccccc2)CC1)c1ncco1
query: List items by pIC50 in falling order. Use the labels to give the requested order.
result: Q, P, R, S
(Q: 7.36, P: 6.74, R: 6.46, S: 6.05)

a: O=C(CCCC1CCN(Cc2ccc(-c3cccs3)nc2)CC1)c1ncco1
b: O=C(CCCC1CCN(C(=O)CCc2ccccc2)CC1)c1ncco1
c: CCN(CC)c1ccc(CN2CCC(CCCC(=O)c3ncco3)CC2)cc1
query: // ascending sort on recorded pIC50 Arrange the labels as the request states and list them.
result: c, a, b
(c: 6.15, a: 6.85, b: 7.25)

A: O=C(CCCC1CCN(Cc2ccc(Oc3ccccc3)nc2)CC1)c1ncco1
B: O=C(O)c1cccc(-c2cnc(C(=O)CCCC3CCN(Cc4cccc(-c5ccccc5)c4)CC3)o2)n1 [Example 149, trifluoroacetic acid salt]
query: Hi, I'm comparing A with B and wondering which one has the bigger number for pIC50. Any idea? Kindly state the label of the option you pick.
result: B
(B: 8.70, A: 7.24)

----------
Biological target: human FAAH (Homo sapiens, UniProt O00519)
Construct: expressed in transfected cells
Sequence (O00519 whole entry): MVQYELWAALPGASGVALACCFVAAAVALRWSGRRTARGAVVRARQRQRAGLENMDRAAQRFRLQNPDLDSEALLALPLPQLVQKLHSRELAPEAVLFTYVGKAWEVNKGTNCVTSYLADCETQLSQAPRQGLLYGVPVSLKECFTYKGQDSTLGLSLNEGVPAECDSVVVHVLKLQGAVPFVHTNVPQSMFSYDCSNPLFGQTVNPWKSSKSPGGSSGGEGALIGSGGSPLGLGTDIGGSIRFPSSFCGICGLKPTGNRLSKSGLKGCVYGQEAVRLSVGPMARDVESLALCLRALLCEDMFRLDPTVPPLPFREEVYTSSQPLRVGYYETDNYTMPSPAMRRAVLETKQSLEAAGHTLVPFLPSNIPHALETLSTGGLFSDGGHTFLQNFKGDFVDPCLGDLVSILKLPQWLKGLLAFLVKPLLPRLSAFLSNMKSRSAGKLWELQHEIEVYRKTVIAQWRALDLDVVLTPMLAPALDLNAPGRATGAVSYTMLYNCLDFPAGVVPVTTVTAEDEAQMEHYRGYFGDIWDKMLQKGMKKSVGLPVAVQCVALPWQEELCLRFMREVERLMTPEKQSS
Assay: Assay Method 1: FAAH assay, hydrolysis of 3H-anandamide by homogenate of SK-N-MC cells transfected with human FAAH
Type: biochemical
Conditions: human FAAH; T84 or transfected SK-N-MC cell homogenate; 3H-AEA tracer 80 nM; rt 1 h; pH 9; read-out: Assay 1 IC50
Where a name gives a salt, the structure may show the parent alone.
MEASUREMENT KIND: IC50 (nM)

The following compounds have reported results that may help.
| COMPOUND | UNIT TAG | VALUE |
| --- | --- | --- |
| O=C(CCCC1CCN(Cc2ccnc3ccccc23)CC1)c1ncco1 [Example 93] | nM | 70 |
| O=C(CCCC1CCN(Cc2ccc(N3CCCCC3)nc2)CC1)c1ncco1 [Example 108] | nM | 23 |
| O=C(CCCC1CCN(Cc2ccco2)CC1)c1ncco1 [Example 118] | nM | 354 |
| O=C(CCCC1CCN(C(=O)Cc2cccc(Cl)c2)CC1)c1ncco1 [Example 41] | nM | 640 |

1: CC(C)(C)Oc1ccc(CN2CCC(CCCC(=O)c3ncco3)CC2)cc1 [Example 24]
2: COc1ccc(CN2CCC(CCCC(=O)c3ncco3)CC2)cn1 [Example 74]
3: O=C(CCCC1CCN(Cc2c(F)cc(F)cc2F)CC1)c1ncco1 [Example 123]
4: O=C(CCCC1CCN(Cc2ccc(N3CCCCC3)cc2)CC1)c1ncco1 [Example 103]
query: Arrange these compounds by their IC50, starting with the largest number. Kindly provide the labels arranged according to the requested ordering.
result: 2, 3, 4, 1
(2: 1300 nM, 3: 200 nM, 4: 108 nM, 1: 32 nM)

A: O=C(CCCC1CCN(C(=O)CCc2ccccc2)CC1)c1ncco1 [Example 36]
B: Cc1ccc(CC(=O)N2CCC(CCCC(=O)c3ncco3)CC2)cc1 [Example 38]
query: Which record shows the lower IC50: the first, A , or the second, B ? # answer = label of selected item
result: A

I: O=C(CCCC1CCN(Cc2ccc(Cl)c(Cl)c2)CC1)c1ncco1 [Example 12]
II: Cc1ccc(S(=O)(=O)N2CCC(CCCC(=O)c3ncc(C(=O)O)o3)CC2)cc1 [Example 146]
III: N#Cc1cccc(-c2ccc(CN3CCC(CCCC(=O)c4ncco4)CC3)cn2)c1 [Example 112]
IV: CC(C)(C)OC(=O)N1CCC(CCCC(=O)c2ncco2)CC1 [Example 1]
V: O=C(CCCC1CCN(Cc2ccc3c(c2)OCO3)CC1)c1ncco1 [Example 14]
query: Hello, I need these entries ordered by IC50, highest reading first. Thanks! The response must list the labels following the requested ordering.
result: V, I, II, III, IV

P: O=C(CCCC1CCN(Cc2ccc3ccccc3n2)CC1)c1ncco1 [Example 92]
Q: CC(C)COC(=O)N1CCC(CCCC(=O)c2ncco2)CC1 [Example 68]
R: CC(C)Cc1ccc(CN2CCC(CCCC(=O)c3ncco3)CC2)cc1 [Example 82]
S: O=C(CCCC1CCN(Cc2ccc3cccnc3n2)CC1)c1ncco1 [Example 116]
query: Order the records, beginning with the lowest IC50 and ending with the highest. Present the labels in the sequence the task asks for.
result: Q, R, P, S

a: O=C(CCCC1CCN(S(=O)(=O)c2ccc(Cl)c(Cl)c2)CC1)c1ncco1 [Example 62]
b: COc1ccc2nc(Cl)c(CN3CCC(CCCC(=O)c4ncco4)CC3)cc2c1 [Example 100]
query: Could you tell me which of a and b has the lower IC50 reading? Give the label under which the chosen entry appears.
result: a

A: O=C(O)c1cnc(C(=O)CCCC2CCN(Cc3cccc(Oc4ccccc4)c3)CC2)o1 [Example 145, trifluoroacetic acid salt]
B: O=C(CCCC1CCN(C(=O)COc2ccccc2)CC1)c1ncco1 [Example 33]
C: O=C(CCCC1CCN(C(=O)COc2ccc(Cl)cc2)CC1)c1ncco1 [Example 35]
D: O=C(CCCC1CCN(Cc2cnc3ccccc3c2)CC1)c1ncco1 [Example 21]
E: CC(C)(C)c1ccc(CN2CCC(CCCC(=O)c3ncco3)CC2)cn1 [Example 139]
query: Falling order of IC50, please. Use the labels to give the requested order.
result: B, E, D, C, A

These measurements were taken from patent US20090111778A1.
